Tested on: OV90
Assay Info: Primary qHTS to identify gynecologic anti-cancer compounds using libraries of approved drugs and bioactive compounds (AID 1345084); also: nearly all actives have a fitted effect of over 55% in size
Experimental Conditions: Gynecologic cancer cell panel viability, ATPlite luminescence, 48 h; series mostly up to 57.5 µM
Results filed as inconclusive are left out. Active and inactive are the calls of the source. Calls follow the shape of the dose curve; as a rule, active = well fitted cell-killing curve with a large enough effect; inconclusive = small, poorly fitted or top-dose-only effect, or effect the other way; inactive = flat fitted curve, though single readings scatter.
Outcomes: active, inactive

Molecule	Discrete Label
C#CCOC(C(=O)OCCN(C)C)(c1ccccc1)c1ccccc1	inactive
CCOP(=S)(OCC)Oc1cc(C)nc(C(C)C)n1	inactive
C=C1CC[C@@]2(O)[C@H]3Cc4ccc(O)c5c4[C@@]2(CCN3CC2CC2)[C@H]1O5	inactive
CC(=O)[C@H]1CC[C@H]2[C@@H]3CC[C@H]4C[C@](C)(O)CC[C@]4(C)[C@H]3CC[C@]12C	inactive
CCCN1CCC[C@@H]2Cc3nc(N)ncc3C[C@H]21	inactive
COc1ccc(C(CN(C)C)C2(O)CCCCC2)cc1 (configuration not stated)	inactive
Nc1ccncc1	inactive
CN(C)[C@@H]1C(=O)C(C(N)=O)=C(O)[C@@]2(O)C(=O)C3=C(O)c4c(O)cccc4[C@@](C)(O)[C@H]3C[C@@H]12	inactive
N#CC(C#N)=Cc1ccc(O)c(O)c1	inactive
Clc1ccc(COC(Cn2ccnc2)c2ccc(Cl)cc2Cl)cc1 (configuration not stated)	active
Cc1cccc(C)c1NC(=O)CN1CCCC1=O	inactive
CCCN1CCC[C@@H]2Cc3[nH]ncc3C[C@H]21	inactive
